# Tested on: U937
# Design: species or system AML cell lines (8); Primary HTS, single concentration about 10 uM, Cell Titer Glo viability; log10 luminescence, per cent inhibition relative to cycloheximide control
# conditionParameters: 72 h, relative to cycloheximide control, log10 luminescence; inhibitor
measureName: U937 %inh (%)
One number for each entry, in %.

Look at each molecule and report its U937 %inh.
1. COC(=O)C1=C(C)N(CCc2cc(OC)c(OC)c(OC)c2)C(=O)N[C@H]1c1ccccc1 [SJ000579768-1]
2. CN1C[C@@H]2Cn3c(c(C4=C(c5cn(C)c6ccccc56)C(=O)NC4=O)c4ccccc43)C[C@H]2C1 [SJ000581133-2]
3. Cc1ccc(C)c(C2=C(c3cn(C)c4ccccc34)C(=O)NC2=O)c1 [SJ000581152-1]
4. Cn1cc(C2=C(c3cn(CCCCN)c4ccccc34)C(=O)NC2=O)c2ccccc21 [SJ000580952-1]
5. CCCCC[C@H](CC(=O)NO)C(=O)N[C@H](C(=O)N1CCC[C@H]1CO)C(C)C [SJ000285589-6, ACTINONIN]

Out:
1. -0.6782
2. 4.609
3. 4.715
4. 11.79
5. 11.94

Look at each molecule and report its U937 %inh.
1. Cc1cc(O)cc(C)c1/C=C/c1cncc(C(N)=O)c1 [SJ000573068-1, U11805/173/2]
2. CNC(=O)c1ncccc1Nc1nc(Nc2cc3c(cc2OC)CCCN3C(=O)CN(C)C)nc2[nH]ccc12 [SJ000573036-1, N6938-65-1]
3. CCCn1cc(C2=C(c3cn(C)c4ccccc34)C(=O)NC2=O)c2ccccc21 [SJ000580980-1]
4. Nc1[nH]nc2nnc(-c3c(-c4ccccc4)nn4ccccc34)cc12 [SJ000773182-1, FR 180204]
5. Cn1cc(C2=C(c3ccccc3[N+](=O)[O-])C(=O)NC2=O)c2ccccc21 [SJ000581119-1]
6. O=C1[C@H](CC[C@H](O)c2ccc(F)cc2)[C@@H](c2ccc(O)cc2)N1c1ccc(F)cc1 [SJ000286078-3, EZETIMIBE]

Out:
1. 80.88
2. 17.5
3. 35.21
4. 0.5636
5. 6.728
6. 5.441

Look at each molecule and report its U937 %inh.
1. O=c1c(-c2ccc(O)cc2)coc2cc(O)ccc12 [SJ000285588-6, DAIDZEIN]
2. COc1cc(F)c(F)c(F)c1C(=O)c1cnc(NC2CCN(S(C)(=O)=O)CC2)nc1N [SJ000581164-1]

Out:
1. -0.9488
2. 40.5

###

# System: CHRF288-11
# Set-up: species or system AML cell lines (8); Primary HTS, single concentration about 10 uM, Cell Titer Glo viability; log10 luminescence, per cent inhibition relative to cycloheximide control
# conditionParameters: 72 h, relative to cycloheximide control, log10 luminescence; inhibitor
Counter-ions that a name gives are not always drawn.
measureName: CHRF288-11 %inh (%)
Answers are plain numbers, in %.

Here's what some known entries look like.
The measured CHRF288-11 %inh associated with COc1ccc(-c2ccc3c(NC(=O)C4CC4)n[nH]c3n2)cc1 [SJ000573088-1, BS100048-058B1] reads -3.869

The measured CHRF288-11 %inh associated with CS(=O)(=O)N1CCC(Nc2ncc(C(=O)c3c(F)cccc3F)c(N)n2)CC1 [SJ000581114-1] reads 0.1318

The measured CHRF288-11 %inh associated with CS(=O)(=O)CCNCc1ccoc1-c1ccc2ncnc(Nc3ccc(OCc4ccccc4)cc3)c2c1 [SJ000573022-1, U12271/142/3] reads 3.335

The measured CHRF288-11 %inh associated with Cn1cc(C2=C(c3ccccc3[N+](=O)[O-])C(=O)NC2=O)c2ccccc21 [SJ000581119-1] reads 24.65

The measured CHRF288-11 %inh associated with CC(C(=O)O)c1ccc(C(=O)c2cccs2)cc1 (centres unmarked) [SJ000285866-4, SUPROFEN] reads 0.5358

Look at each compound and report its CHRF288-11 %inh.
1. Cn1c(=O)c2c(ncn2C)n(C)c1=O [SJ000285694-6, CAFFEINE]
2. CN1CCC(n2cnc(-c3ccc(F)cc3)c2-c2ccnc(Nc3ccccc3)n2)CC1 [SJ000573236-1, TG19207-284A1]
3. Cn1cc(C2=C(c3cccc(Cl)c3)C(=O)NC2=O)c2ccccc21 [SJ000580981-1]
4. N#CCn1c(=O)c(Oc2ccc(F)cc2F)cc2cnc(NC3CCOCC3)nc21 [SJ000581089-1]
5. CCN[C@H]1C[C@H](C)S(=O)(=O)c2sc(S(N)(=O)=O)cc21 [SJ000287570-2, DORZOLAMIDE HYDROCHLORIDE]
6. CN1CCN(CCCNc2nc3ccc(Oc4ccc(NC(=O)Nc5cc(C(F)(F)F)ccc5F)cc4)cc3[nH]2)CC1 [SJ000573304-1, T278/35/2]

Out:
1. -2.164
2. 30.13
3. 3.619
4. 0.7869
5. -4.447
6. -0.361
